- assayed.system: HNF4alpha2 (COS-7 nuclear extract) (Homo sapiens, UniProt P41235 1-474)
- Sequence: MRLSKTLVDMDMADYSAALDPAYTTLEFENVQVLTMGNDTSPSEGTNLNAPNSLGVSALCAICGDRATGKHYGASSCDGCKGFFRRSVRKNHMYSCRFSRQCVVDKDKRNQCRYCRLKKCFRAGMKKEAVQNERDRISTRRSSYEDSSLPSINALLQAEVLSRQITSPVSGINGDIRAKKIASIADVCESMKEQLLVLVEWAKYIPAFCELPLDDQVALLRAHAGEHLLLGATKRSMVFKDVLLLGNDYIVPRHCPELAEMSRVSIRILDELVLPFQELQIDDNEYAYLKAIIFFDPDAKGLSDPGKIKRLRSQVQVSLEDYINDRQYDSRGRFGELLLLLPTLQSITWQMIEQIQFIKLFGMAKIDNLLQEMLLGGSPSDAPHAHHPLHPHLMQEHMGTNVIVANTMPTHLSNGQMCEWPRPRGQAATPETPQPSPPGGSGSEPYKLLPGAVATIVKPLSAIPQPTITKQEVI
- experiment.summary: protein-binding microarray; COS-7 nuclear extract on double-stranded Agilent 4x180k PBM; binding buffer, salt, pH and temperature not given in the material; high values mean tight binding
- recorded.conditions: chain copies: 2; label: 3' end of strand 1 on the slide; dsDNA, one strand shown
In all, about 18,000 sequences were measured (“log2 normalized intensity”: median about 0.39, highest 2% from about 6.6 on). The entries come from a sample that favours the highest values as a whole.
# binding signal values compiled below
Could you give me the number in log2 normalized intensity? Just the number is fine.

- construct.sequence: "GTCCACACATTCCTAGACCTTTGACCTTTAGCCTAGGGAGATTAGAGTATCGGTCGA"
  units: "log2 normalized intensity"
  binding signal: 8.13
- construct.sequence: "AGGAGATGTGGTGGACTTTAACGACCTTTGGCCTAGGGAGATTAGAGTATCGGTCGA"
  units: "log2 normalized intensity"
  binding signal: 4.66
- construct.sequence: "ACTTTGGAACTCAGTTAATGTACAGAGTATGCCTAGGGAGATTAGAGTATCGGTCGA"
  units: "log2 normalized intensity"
  binding signal: 0.375
- construct.sequence: "TAGGTTTGTGAGTCCAAAGGTCAGCCGGGGGCCTAGGGAGATTAGAGTATCGGTCGA"
  units: "log2 normalized intensity"
  binding signal: 7.74
- construct.sequence: "TTGTACTCAGTATGTGCTGACTGACTCCTGGCCTAGGGAGATTAGAGTATCGGTCGA"
  units: "log2 normalized intensity"
  binding signal: 0.992
- construct.sequence: "TGGACTTTGGAATTAAGGAGATTTGGCTTTGCCTAGGGAGATTAGAGTATCGGTCGA"
  units: "log2 normalized intensity"
  binding signal: 4.84
- construct.sequence: "TTCAATTTTTTTGTTGTTATCCATTTAAAAGCCTAGGGAGATTAGAGTATCGGTCGA"
  units: "log2 normalized intensity"
  binding signal: 1.04
- construct.sequence: "CCTTGGATCTCCTGCACCTGAACTTTGCTCGCCTAGGGAGATTAGAGTATCGGTCGA"
  units: "log2 normalized intensity"
  binding signal: 6.35

Determine reported binding signal for TCTCTGGCTTGATCCCTGAACTTTGCTCCCGCCTAGGGAGATTAGAGTATCGGTCGA ; test system: HNF4alpha2 (COS-7 nuclear extract) (Homo sapiens, UniProt P41235 1-474).
7.97

Determine reported binding signal for TGGGCTCCTGCCTTGGAGAAGTGAACTTTGGCCTAGGGAGATTAGAGTATCGGTCGA ; test system: HNF4alpha2 (COS-7 nuclear extract) (Homo sapiens, UniProt P41235 1-474).
4.34

Determine reported binding signal for ATTGTGATTCCTGTGATACCTTCTTTGCCTGCCTAGGGAGATTAGAGTATCGGTCGA ; test system: HNF4alpha2 (COS-7 nuclear extract) (Homo sapiens, UniProt P41235 1-474).
1.13

Determine reported binding signal for GGTGAGTCTTTGCCCCTGGACTTTGAATTTGCCTAGGGAGATTAGAGTATCGGTCGA ; test system: HNF4alpha2 (COS-7 nuclear extract) (Homo sapiens, UniProt P41235 1-474).
4.94

Determine reported binding signal for TCCTAGACCTTTGACCTTTATACCTGTACGGCCTAGGGAGATTAGAGTATCGGTCGA ; test system: HNF4alpha2 (COS-7 nuclear extract) (Homo sapiens, UniProt P41235 1-474).
5.75

Determine reported binding signal for TTGGGTCACAATCACAAATGCCTTCAGGGGGCCTAGGGAGATTAGAGTATCGGTCGA ; test system: HNF4alpha2 (COS-7 nuclear extract) (Homo sapiens, UniProt P41235 1-474).
0.838

Determine reported binding signal for GTGAACTTTGCCCTCTCTTTCTGGAACCTAGCCTAGGGAGATTAGAGTATCGGTCGA ; test system: HNF4alpha2 (COS-7 nuclear extract) (Homo sapiens, UniProt P41235 1-474).
5.08

Determine reported binding signal for ACTGATCTCTGGCTTGATCCCTGAACTTTGGCCTAGGGAGATTAGAGTATCGGTCGA ; test system: HNF4alpha2 (COS-7 nuclear extract) (Homo sapiens, UniProt P41235 1-474).
3.32

Determine reported binding signal for GGGTCCTGGCAGCACCTGAAGAATTTGGACGCCTAGGGAGATTAGAGTATCGGTCGA ; test system: HNF4alpha2 (COS-7 nuclear extract) (Homo sapiens, UniProt P41235 1-474).
1.23

Determine reported binding signal for TTGTCCCTTTTCTATCCAGATGATCTTTACGCCTAGGGAGATTAGAGTATCGGTCGA ; test system: HNF4alpha2 (COS-7 nuclear extract) (Homo sapiens, UniProt P41235 1-474).
2.25

Determine reported binding signal for GAAGATCGCAGACTTTGGACTCTGCAAGGAGCCTAGGGAGATTAGAGTATCGGTCGA ; test system: HNF4alpha2 (COS-7 nuclear extract) (Homo sapiens, UniProt P41235 1-474).
5.8

Determine reported binding signal for AGCACCTGAAGAATTTGGACTTTGCACTAAGCCTAGGGAGATTAGAGTATCGGTCGA ; test system: HNF4alpha2 (COS-7 nuclear extract) (Homo sapiens, UniProt P41235 1-474).
8.43

Determine reported binding signal for GCTGTCTACTCTGGGGGTCAGCAATGGTAAGCCTAGGGAGATTAGAGTATCGGTCGA ; test system: HNF4alpha2 (COS-7 nuclear extract) (Homo sapiens, UniProt P41235 1-474).
1.8

Determine reported binding signal for TTGTGAGTCCAAAGGTCAGCCGGGGAAGGTGCCTAGGGAGATTAGAGTATCGGTCGA ; test system: HNF4alpha2 (COS-7 nuclear extract) (Homo sapiens, UniProt P41235 1-474).
6.71

Determine reported binding signal for GACATTCCTTCAGCGTGAACTTTGACATGAGCCTAGGGAGATTAGAGTATCGGTCGA ; test system: HNF4alpha2 (COS-7 nuclear extract) (Homo sapiens, UniProt P41235 1-474).
5.5

Determine reported binding signal for TGTCCAGCACACCTTTTTTTCATGCAAATTGCCTAGGGAGATTAGAGTATCGGTCGA ; test system: HNF4alpha2 (COS-7 nuclear extract) (Homo sapiens, UniProt P41235 1-474).
0.631
